# method-summary: Plasma stability assay
# Type: in vitro ADME
# measurement-context: human plasma, 37° C., read-out: Human plasma t1/2
Answer label 0 if half-life at 3 µM is under 30 min, and label 1 if it is 30 min or more.

compound: C/C(=N\OC(=O)N(C)C[C@@H]1CCCN1)[C@H]1CC[C@H]2[C@@H]3CCC4C[C@](C)(O)CC[C@]4(C)[C@H]3CC[C@]12C.Cl (some centres unmarked) [GP-GAN- 003 (20b)]
category: label 0
//
compound: C/C(=N\O)[C@@]1(F)CC[C@H]2[C@@H]3CC[C@H]4C[C@](C)(O)CC[C@]4(C)[C@H]3CC[C@@]21C [GP-GAN- 006 (15)]
category: label 0
//
compound: CNCCN(C(=O)O/N=C(\C)[C@H]1CC[C@H]2[C@@H]3CCC4C[C@](C)(O)CC[C@]4(C)[C@H]3CC[C@]12C)C1CCC1.Cl (some centres unmarked) [GP-GAN- 005 (20c)]
category: label 1
//
compound: CNCCN(C(=O)O/N=C(\C)[C@H]1CC[C@H]2[C@@H]3CCC4C[C@](C)(O)CC[C@]4(C)[C@H]3CC[C@]12C)C(C)C.Cl (some centres unmarked) [GP-GAN- 004 (20d)]
category: label 0
//
compound: CNCCN(C)C(=O)O/N=C(\C)[C@H]1CC[C@H]2[C@@H]3CCC4C[C@](C)(O)CC[C@]4(C)[C@H]3CC[C@]12C.Cl (some centres unmarked) [GP-GAN- 002 (20a)]
category: label 1

----------
# method-summary: Aqueous solubility
# measurement-context: water
// reported solubility for each item listed

compound: C/C(=N\OC(=O)N(C)C[C@@H]1CCCN1)[C@H]1CC[C@H]2[C@@H]3CCC4C[C@](C)(O)CC[C@]4(C)[C@H]3CC[C@]12C.Cl (some centres unmarked) [GP-GAN- 003 (20b)]
solubility: > 750 µM
//
compound: CNCCN(C(=O)O/N=C(\C)[C@H]1CC[C@H]2[C@@H]3CCC4C[C@](C)(O)CC[C@]4(C)[C@H]3CC[C@]12C)C(C)C.Cl (some centres unmarked) [GP-GAN- 004 (20d)]
solubility: > 750 µM
//
compound: CNCCN(C(=O)O/N=C(\C)[C@H]1CC[C@H]2[C@@H]3CCC4C[C@](C)(O)CC[C@]4(C)[C@H]3CC[C@]12C)C1CCC1.Cl (some centres unmarked) [GP-GAN- 005 (20c)]
solubility: > 750 µM
//
compound: CNCCN(C)C(=O)O/N=C(\C)[C@H]1CC[C@H]2[C@@H]3CCC4C[C@](C)(O)CC[C@]4(C)[C@H]3CC[C@]12C.Cl (some centres unmarked) [GP-GAN- 002 (20a)]
solubility: > 750 µM
//
compound: C/C(=N\OCOP(=O)(O)O)[C@H]1CC[C@H]2[C@@H]3CCC4C[C@](C)(O)CC[C@]4(C)[C@H]3CC[C@]12C (some centres unmarked)
solubility: > 1000 µM

----------
# method-summary: Plasma stability assay
# Format: in vitro ADME
# measurement-context: human plasma, 37° C., unit in cell hr (head: min), read-out: Human plasma t1/2

compound: C/C(=N\O)[C@H]1CC[C@H]2[C@@H]3CC[C@H]4C[C@](C)(O)CC[C@]4(C)[C@H]3CC[C@]12C [GP-GAN- 001 (10)]
half-life at 3 µM: > 4 h
//
compound: C/C(=N\O)[C@H]1CC[C@H]2[C@@H]3CC[C@@H]4C[C@](C)(O)CC[C@@H]4[C@H]3CC[C@]12C [LEH- NEURO- 007 (30)]
half-life at 3 µM: > 4 h

The measurements presented in this section are drawn from patent US20260285897A1.
